system under test: PRMT5 (Homo sapiens, UniProt O14744)
Construct: purchased Viva (custom protein)
Sequence (O14744 whole entry): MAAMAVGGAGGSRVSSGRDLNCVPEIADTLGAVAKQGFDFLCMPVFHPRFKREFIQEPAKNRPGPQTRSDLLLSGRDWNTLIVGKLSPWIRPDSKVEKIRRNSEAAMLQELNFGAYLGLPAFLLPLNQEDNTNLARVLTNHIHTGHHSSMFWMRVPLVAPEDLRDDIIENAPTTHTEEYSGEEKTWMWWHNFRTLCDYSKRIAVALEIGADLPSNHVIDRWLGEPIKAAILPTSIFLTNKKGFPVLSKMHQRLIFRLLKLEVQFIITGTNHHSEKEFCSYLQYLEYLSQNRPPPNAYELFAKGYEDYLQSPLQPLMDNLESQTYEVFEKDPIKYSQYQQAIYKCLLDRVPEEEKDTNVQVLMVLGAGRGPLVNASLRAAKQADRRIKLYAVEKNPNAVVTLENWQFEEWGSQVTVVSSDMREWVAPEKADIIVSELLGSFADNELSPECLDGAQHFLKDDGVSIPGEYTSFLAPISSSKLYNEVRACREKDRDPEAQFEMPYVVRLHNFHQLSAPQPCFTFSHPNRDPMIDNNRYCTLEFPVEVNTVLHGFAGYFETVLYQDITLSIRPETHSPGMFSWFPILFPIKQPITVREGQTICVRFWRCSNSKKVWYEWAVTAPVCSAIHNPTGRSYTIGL
Sequence (Q9BQA1 whole entry partner): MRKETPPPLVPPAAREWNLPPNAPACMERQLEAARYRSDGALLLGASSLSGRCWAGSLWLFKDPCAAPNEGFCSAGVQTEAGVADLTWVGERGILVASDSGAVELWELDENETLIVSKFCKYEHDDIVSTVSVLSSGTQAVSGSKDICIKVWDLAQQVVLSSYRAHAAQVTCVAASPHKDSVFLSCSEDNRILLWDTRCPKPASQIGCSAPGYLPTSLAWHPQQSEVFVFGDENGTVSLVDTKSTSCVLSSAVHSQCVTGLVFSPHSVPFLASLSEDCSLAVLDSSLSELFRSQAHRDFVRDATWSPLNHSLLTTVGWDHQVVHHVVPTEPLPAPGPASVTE
protocol description: PRMT5 biochemical IC50 assay with MTA as cofactor
condition info: PRMT5, MTA as cofactor; read-out: MTA IC50
# IC50 listing for each entry below

Worked examples, 4 compounds total:
Reported IC50 for PRMT5 (Homo sapiens, UniProt O14744), given Cc1cc(NC(=O)C(=O)N2CC[C@@H](C(=O)C(C)C)C[C@H]2c2ccc3c(c2)CCC(=O)N3)cnc1N (racemic) ?
50 to 500 nM

Reported IC50 for PRMT5 (Homo sapiens, UniProt O14744), given CO[C@@H]1C[C@@H](c2ccc3scnc3c2)N(C(=O)C(=O)Nc2cnc(N)c(C)c2)C[C@@H]1C (single isomer, unassigned) ?
> 500 nM

Reported IC50 for PRMT5 (Homo sapiens, UniProt O14744), given Cc1cc(NC(=O)C(=O)N2C[C@H](C)CC[C@H]2c2ccc(C(F)(F)F)c(Cl)c2)cnc1N (single isomer, unassigned) ?
> 500 nM

Reported IC50 for PRMT5 (Homo sapiens, UniProt O14744), given CCC(C)C1CCCCN1C(=O)C(=O)Nc1cnc(N)c(C)c1 (stereo not drawn) ?
50 to 500 nM

Others:
Reported IC50 for PRMT5 (Homo sapiens, UniProt O14744), given COc1ccc([C@@H]2CC[C@@H](C)CN2C(=O)C(=O)Nc2cncc(C(N)=O)c2)cc1C#N (racemic) ?
50 to 500 nM

Reported IC50 for PRMT5 (Homo sapiens, UniProt O14744), given C[C@@H]1CC[C@@H](c2cccc(Cl)c2)N(C(=O)C(=O)Nc2cncc(C(N)=O)c2)C1 (single isomer, unassigned) [Compound 441] ?
> 500 nM

====

System: HAP1 MTAP-deleted cell line
protocol description: SDMA in-cell western assay, HAP1 MTAP-deleted
Assay type: cell-based
condition info: Homo sapiens, HAP1, SDMA in-cell western, HAP1 MTAP-deleted; read-out: HAP1 MTAP deleted IC50
assay metric: IC50

Worked examples, 3 compounds total:
Find the recorded IC50 belonging to C[C@@H]1CC[C@@H](c2cccc3[nH]ncc23)N(C(=O)C(=O)Nc2cncc(C(N)=O)c2)C1 (single isomer, unassigned) and report it.
> 1 µM

Find the recorded IC50 belonging to C[C@H]1CC[C@H]([C@@H]2CCC[C@@H](O)C2)N(C(=O)C(=O)Nc2cncc(C(N)=O)c2)C1 (single isomer, unassigned) and report it.
0.1 to 1 µM

Find the recorded IC50 belonging to Cc1cc(NC(=O)C(=O)N2C[C@H](C)CC[C@H]2c2cc(F)c(F)c(F)c2)cnc1N (single isomer, unassigned) and report it.
0.1 to 1 µM

Others:
Find the recorded IC50 belonging to Cc1c(NC(=O)C(=O)N2[C@@H](C)CCC[C@H]2c2ccccc2)cnc(N)c1C (single isomer, unassigned) and report it.
0.1 to 1 µM

Find the recorded IC50 belonging to C[C@@H]1C[C@H](c2ccccc2)N(C(=O)C(=O)Nc2cncc(C(N)=O)c2)C[C@H]1C (racemic) and report it.
0.1 to 1 µM

Find the recorded IC50 belonging to Cc1cc(NC(=O)C(=O)N2C[C@@H](C)CC[C@@H]2c2cc3[nH]ncc3s2)cnc1N (single isomer, unassigned) and report it.
< 0.1 µM

Find the recorded IC50 belonging to Cc1cc(NC(=O)C(=O)N2C[C@H](C)C(F)(F)C[C@H]2c2ccc(F)cc2)cnc1N (single isomer, unassigned) and report it.
> 1 µM

====

system under test: PRMT5 (Homo sapiens, UniProt O14744)
Construct: purchased Viva (custom protein)
protocol description: PRMT5 biochemical IC50 assay with SAM as cofactor
condition info: PRMT5, SAM as cofactor; read-out: SAM IC50
pIC50: −log10 of the molar value.
# pIC50 listing for each entry below

Worked examples, 3 compounds total:
Find the recorded pIC50 belonging to C[C@H]1CC[C@H](c2ccc3c(c2)C[C@@H](C)O3)N(C(=O)C(=O)Nc2cncc(C(N)=O)c2)C1 (single isomer, unassigned) [Compound 377] and report it.
< 6.30

Find the recorded pIC50 belonging to Cc1cc(NC(=O)C(=O)N2C[C@@H](C)CC[C@@H]2c2ccc3[nH]ncc3n2)cnc1N (single isomer, unassigned) [Compound 780] and report it.
< 6.30

Find the recorded pIC50 belonging to Cc1cc(NC(=O)C(=O)N2C[C@H](C)CC[C@H]2c2ccc(C(F)(F)F)nc2)cnc1N (single isomer, unassigned) [Compound 1015] and report it.
< 6.30

Others:
Find the recorded pIC50 belonging to CCc1cc(NC(=O)C(=O)N2C[C@H](C)CC[C@H]2c2ccc3sc(C(F)(F)F)nc3c2)cnc1N (single isomer, unassigned) [Compound 1027] and report it.
< 6.30

Find the recorded pIC50 belonging to Cc1cc(NC(=O)C(=O)N2CCCCC2C2CCC(F)(F)CC2)cnc1N (stereo not drawn) [Compound 186] and report it.
6.30 to 7.30

Find the recorded pIC50 belonging to Cc1cc(NC(=O)C(=O)N2C[C@H](C)CC[C@H]2c2ccsc2)cnc1N (racemic) [Compound 977] and report it.
6.30 to 7.30

====

system under test: PRMT5 (Homo sapiens, UniProt O14744)
Construct: purchased Viva (custom protein)
protocol description: PRMT5 biochemical IC50 assay with MTA as cofactor
condition info: PRMT5, MTA as cofactor; read-out: MTA IC50
assay metric: IC50

Worked examples, 5 compounds total:
Find the recorded IC50 belonging to C[C@@H]1CC[C@@H](c2cccc3[nH]ncc23)N(C(=O)C(=O)Nc2cncc(C(N)=O)c2)C1 (single isomer, unassigned) and report it.
> 500 nM

Find the recorded IC50 belonging to C[C@@H]1CC[C@@H](c2ccc(S(N)(=O)=O)cc2)N(C(=O)C(=O)Nc2cncc(C(N)=O)c2)C1 (single isomer, unassigned) [Compound 725] and report it.
< 50 nM

Find the recorded IC50 belonging to Cc1cc(NC(=O)C(=O)N2C[C@H](C)C(F)(F)C[C@H]2c2ccc(F)cc2)cnc1N (single isomer, unassigned) and report it.
> 500 nM

Find the recorded IC50 belonging to Cc1cc(NC(=O)C(=O)N2C[C@@H](C)CC[C@@H]2c2ccc3sc(-c4cn(C)cn4)nc3c2)cnc1N and report it.
< 50 nM

Find the recorded IC50 belonging to COc1ccc([C@@H]2CC[C@@H](C)CN2C(=O)C(=O)Nc2cncc(C(N)=O)c2)cn1 (racemic) and report it.
< 50 nM

Others:
Find the recorded IC50 belonging to CO[C@H]1C[C@H](c2ccc3scnc3c2)N(C(=O)C(=O)Nc2cnc(N)c(C3CC3)c2)C[C@H]1C (single isomer, unassigned) and report it.
< 50 nM

Find the recorded IC50 belonging to CCc1cc(NC(=O)C(=O)N2C[C@@H](C)CC[C@@H]2c2cccc(N3CCN(C)CC3)c2)cnc1N and report it.
< 50 nM

Find the recorded IC50 belonging to CCc1cc(NC(=O)C(=O)N2C[C@H](C)CC[C@H]2c2ccc(NS(C)(=O)=O)cc2)cnc1N (single isomer, unassigned) and report it.
> 500 nM

Find the recorded IC50 belonging to Cc1cc(NC(=O)C(=O)N2C[C@@H](C)CC[C@@H]2c2cc(F)c(F)c(Cl)c2)cnc1N (single isomer, unassigned) and report it.
< 50 nM

Find the recorded IC50 belonging to Cc1cc(NC(=O)C(=O)N2C[C@H](C)CC[C@H]2c2ccnn2C)cnc1N (racemic) and report it.
50 to 500 nM

Find the recorded IC50 belonging to CNC(=O)c1ccc([C@@H]2CC[C@@H](C)CN2C(=O)C(=O)Nc2cncc(C(N)=O)c2)s1 (single isomer, unassigned) and report it.
< 50 nM

Find the recorded IC50 belonging to CC[C@@H]1CC[C@H](c2ccccc2)N(C(=O)C(=O)Nc2cncc(C(N)=O)c2)C1 (single isomer, unassigned) and report it.
50 to 500 nM

Find the recorded IC50 belonging to COc1ncc(NC(=O)C(=O)N2C[C@H](C)CC[C@H]2c2cncs2)cc1C(N)=O (single isomer, unassigned) and report it.
> 500 nM

Find the recorded IC50 belonging to Cc1cc(NC(=O)C(=O)N2C[C@H](C)C[C@H](F)[C@@H]2c2ccc(F)cc2)cnc1N (racemic) and report it.
50 to 500 nM

Find the recorded IC50 belonging to Cc1cc(NC(=O)C(=O)N2C[C@H](C)CC[C@H]2c2cnc3scnc3c2)cnc1N (racemic) and report it.
50 to 500 nM

====

system under test: PRMT5 (Homo sapiens)
Construct: purchased Viva (custom protein)
protocol description: PRMT5 biochemical IC50 assay with SAM as cofactor
condition info: PRMT5, SAM as cofactor; read-out: SAM IC50
assay metric: IC50

Worked examples, 2 compounds total:
Find the recorded IC50 belonging to Cc1cc(NC(=O)C(=O)N2C[C@H](C)CC[C@H]2c2ccc3[nH]ncc3n2)cnc1N (single isomer, unassigned) and report it.
50 to 500 nM

Find the recorded IC50 belonging to CCc1cc(NC(=O)C(=O)N2C[C@@H](C)CC[C@@H]2c2ccc3sc(CN(C)C(C)C)nc3c2)cnc1N and report it.
50 to 500 nM

Now for another entry.
Find the recorded IC50 belonging to CCc1cc([C@@H]2CC[C@@H](C)CN2C(=O)C(=O)Nc2cncc(C(N)=O)c2)ccc1O (racemic) and report it.
50 to 500 nM
